assay: acute toxicity, intraperitoneal administration, solution in Tween; type: in vivo; settings: mouse, in vivo, ip; souris, voie intrapéritonéale, 200 mg/kg, solution dans le Tween; read-out: mortalité
Measured Metric: mortality (%)

- Compound: "Cc1cccc(C(C)C)c1NCC(O)CNC(C)(C)C (centres unmarked) [COR37 06C]"
  Units Of Measure: "%"
  Assay Result: 100
- Compound: "CC(C)c1ccccc1NCC(O)CNC(C)(C)C (centres unmarked) [COR37 05C]"
  Units Of Measure: "%"
  Assay Result: 0

* * *

assay: acute toxicity, oral administration, solution in Tween; settings: mouse, in vivo, souris, voie orale, 200 mg/kg, solution dans le Tween, read-out: mortalité

- Molecule: "Cc1cccc(C(C)C)c1NCC(O)CNC(C)(C)C (stereo not shown) [COR37 06C]"
  mortality (%): 10
